experiment: Inhibition of HIV-RNase-H; design: species or system Human immunodeficiency virus
quantity: IC50

• CN(C)S(=O)(=O)N(C)[C@@H]1CCCn2c1nc(C(=O)NCc1ccc(F)cc1)c(O)c2=O = > 25 µM

**Query** Name the reported IC50 value associated with the molecule CN(C)C(=O)C(=O)N(C)[C@H]1CCCCn2c1nc(C(=O)NCc1ccc(F)cc1)c(O)c2=O
**Result** > 50 µM

---

assay: Oral bioavailability in rat at 3 mg/kg; format: ADME, organism-based; settings: in vivo
yes (1) means recorded bioavailability is 50% or above; no (0) means it is below 50%.

- CN(C1CCCn2c1nc(C(=O)NCc1ccc(F)cc1)c(O)c2=O)S(C)(=O)=O (racemic): no (0)

**Query** Say whether CN(C)C(=O)C(=O)N(C)[C@H]1CCCn2c1nc(C(=O)NCc1ccc(F)cc1)c(O)c2=O shows bioavailability of 50% or more.
**Result** no (0)

**Query** Say whether CN(C)S(=O)(=O)N(C)[C@@H]1CCCn2c1nc(C(=O)NCc1ccc(F)cc1)c(O)c2=O shows bioavailability of 50% or more.
**Result** yes (1)

**Query** Say whether CN(C(=O)CS(=O)(=O)N(C)C)[C@H]1CCCn2c1nc(C(=O)NCc1ccc(F)cc1)c(O)c2=O shows bioavailability of 50% or more.
**Result** no (0)

**Query** Say whether CN1CCN(S(=O)(=O)N(C)[C@H]2CCCn3c2nc(C(=O)NCc2ccc(F)cc2)c(O)c3=O)CC1 shows bioavailability of 50% or more.
**Result** no (0)

---

test system: Human immunodeficiency virus 1; assay: Antiviral activity against HIV1 in human MT4 cell assessed as inhibition of virus spread in presence of 50% normal human serum; type: functional; details: Human immunodeficiency virus 1, MT4; read-out: CIC95
Readings of IC95 for the listed compounds
I only need the number, in nM, no unit after it.

The cases that follow already have their IC95 on record.
• CN(C(=O)c1nc2ncccn2n1)C1CCCn2c1nc(C(=O)NCc1ccc(F)cc1)c(O)c2=O (racemic) = 250
• CN1CCN(S(=O)(=O)N(C)[C@@H]2CCCn3c2nc(C(=O)NCc2ccc(F)cc2)c(O)c3=O)CC1 = 20
• CN(C)S(=O)(=O)N(C)C1CCCn2c1nc(C(=O)NCc1ccc(F)cc1)c(O)c2=O (racemic) = 21
• CN(C)C(=O)C(=O)N(C)[C@H]1CCCn2c1nc(C(=O)NCc1ccc(F)cc1)c(O)c2=O = 43

**Query** Name the reported IC95 value associated with the compound CN1CCOCC1c1nc(C(=O)NCc2ccc(F)cc2)c(O)c(=O)n1C (stereo not given)
**Result** 100

**Query** Name the reported IC95 value associated with the compound CN(C1CCCn2c1nc(C(=O)NCc1ccc(F)cc1)c(O)c2=O)S(=O)(=O)N1CCOCC1 (racemic)
**Result** 31

**Query** Name the reported IC95 value associated with the compound CN1CCCN(C2CCCCn3c2nc(C(=O)NCc2ccc(F)cc2)c(O)c3=O)S1(=O)=O (racemic)
**Result** 156

**Query** Name the reported IC95 value associated with the compound CN(C(=O)C(F)F)C1CCCn2c1nc(C(=O)NCc1ccc(F)cc1)c(O)c2=O (racemic)
**Result** 1000

**Query** Name the reported IC95 value associated with the compound CC(=O)N(C)C1CCCn2c1nc(C(=O)NCc1ccc(F)cc1)c(O)c2=O (racemic)
**Result** 1000

**Query** Name the reported IC95 value associated with the compound CN(C1CCCn2c1nc(C(=O)NCc1ccc(F)cc1)c(O)c2=O)S(=O)(=O)N1CCCCC1 (racemic)
**Result** 125

**Query** Name the reported IC95 value associated with the compound CN1CCOCC1c1nc(O)c(O)c(C(=O)NCc2ccc(F)cc2)n1 (stereo not given)
**Result** 230

**Query** Name the reported IC95 value associated with the compound CN(C(=O)CS(C)(=O)=O)C1CCCCn2c1nc(C(=O)NCc1ccc(F)cc1)c(O)c2=O (racemic)
**Result** 125

**Query** Name the reported IC95 value associated with the compound CN(C1CCCn2c1nc(C(=O)NCc1ccc(F)cc1)c(O)c2=O)S(C)(=O)=O (racemic)
**Result** 86

**Query** Name the reported IC95 value associated with the compound CN(C)C(=O)C(=O)N(C)C1CCCCn2c1nc(C(=O)NCc1ccc(F)cc1)c(O)c2=O (racemic)
**Result** 63

**Query** Name the reported IC95 value associated with the compound CN(C)S(=O)(=O)N(C)[C@@H]1CCCn2c1nc(C(=O)NCc1ccc(F)cc1)c(O)c2=O
**Result** 44

**Query** Name the reported IC95 value associated with the compound CN(C1CCCCn2c1nc(C(=O)NCc1ccc(F)cc1)c(O)c2=O)S(C)(=O)=O (racemic)
**Result** 125

**Query** Name the reported IC95 value associated with the compound CN1CCCN(C2CCCn3c2nc(C(=O)NCc2ccc(F)cc2)c(O)c3=O)S1(=O)=O (racemic)
**Result** 47

**Query** Name the reported IC95 value associated with the compound CN(C(=O)CS(=O)(=O)N(C)C)C1CCCn2c1nc(C(=O)NCc1ccc(F)cc1)c(O)c2=O (racemic)
**Result** 47

**Query** Name the reported IC95 value associated with the compound CN(C)C(=O)C(=O)N(C)[C@@H]1CCCn2c1nc(C(=O)NCc1ccc(F)cc1)c(O)c2=O
**Result** 98

**Query** Name the reported IC95 value associated with the compound CN(C)S(=O)(=O)N(C)C1CCCCn2c1nc(C(=O)NCc1ccc(F)cc1)c(O)c2=O (racemic)
**Result** 125

**Query** Name the reported IC95 value associated with the compound CN(C)C(=O)C(=O)N(C)C1CCCn2c1nc(C(=O)NCc1ccc(F)cc1)c(O)c2=O (racemic)
**Result** 40

**Query** Name the reported IC95 value associated with the compound CN(C)S(=O)(=O)N(C)[C@H]1CCCn2c1nc(C(=O)NCc1ccc(F)cc1)c(O)c2=O
**Result** 31
